Assay: Inhibition of human collagen prolyl 4-hydroxylase
attribute measured: Ki (nM)
Report as a plain number; the unit nM is understood.

For O=C(O)c1ccc(C(=O)O)nc1 [PYRIDINE-2,5-DICARBOXYLIC ACID] , what is its reported Ki?
800

----------
Target: UniProt Q9GZT9
Sequence (Q9GZT9 2-426 limits assumed): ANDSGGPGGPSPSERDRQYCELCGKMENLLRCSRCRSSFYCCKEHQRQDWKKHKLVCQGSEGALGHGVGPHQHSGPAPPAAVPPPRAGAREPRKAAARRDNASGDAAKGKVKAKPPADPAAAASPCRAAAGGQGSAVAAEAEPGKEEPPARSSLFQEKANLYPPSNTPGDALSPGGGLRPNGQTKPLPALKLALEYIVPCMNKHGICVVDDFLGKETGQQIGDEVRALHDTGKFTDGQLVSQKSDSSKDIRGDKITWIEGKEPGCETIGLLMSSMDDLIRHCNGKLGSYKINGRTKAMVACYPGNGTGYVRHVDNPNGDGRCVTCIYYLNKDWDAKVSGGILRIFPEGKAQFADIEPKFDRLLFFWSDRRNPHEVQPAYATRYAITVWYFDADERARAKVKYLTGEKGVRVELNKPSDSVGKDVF
Assay: Inhibition of N-terminal hexa-histidine tagged human PHD2 (181 to 426 amino acids) at 10 uM pre-incubated for 2 mins followed by alpha-ketoglutarate addition using HIF1alpha peptide (556 to 574 amino acids) and 50 uM FeSO4 by RP-HPLC method
Activity calls are given as the source filed them. No cut-off for these calls is given here.
Please answer using one outcome listed in active, inactive

O=C(O)c1ccc(-c2cccc(C(=O)O)n2)nc1 ... inactive
O=C(O)c1ccc(-c2ccc(C(=O)O)cn2)nc1 ... inactive
O=C(O)CNC(=O)C(=O)O ... active
O=C(O)c1ccc(C(=O)O)nc1 ... inactive
O=C(O)c1ccnc(C(=O)O)c1 ... active
O=C(O)c1cccc(-c2cccc(C(=O)O)n2)n1 ... inactive
O=C(O)c1ccnc(-c2cccc(C(=O)O)n2)c1 ... inactive
O=C(O)c1ccnc(-c2cc(C(=O)O)ccn2)c1 ... active

Now look at this entry.
Outcome logged for "O=C(O)c1ccc(-c2cc(C(=O)O)ccn2)nc1" in this assay:
active

----------
Biological target: Prolyl 4-hydroxylase subunit alpha-1 (Homo sapiens, UniProt P13674)
Sequence (P13674 whole entry): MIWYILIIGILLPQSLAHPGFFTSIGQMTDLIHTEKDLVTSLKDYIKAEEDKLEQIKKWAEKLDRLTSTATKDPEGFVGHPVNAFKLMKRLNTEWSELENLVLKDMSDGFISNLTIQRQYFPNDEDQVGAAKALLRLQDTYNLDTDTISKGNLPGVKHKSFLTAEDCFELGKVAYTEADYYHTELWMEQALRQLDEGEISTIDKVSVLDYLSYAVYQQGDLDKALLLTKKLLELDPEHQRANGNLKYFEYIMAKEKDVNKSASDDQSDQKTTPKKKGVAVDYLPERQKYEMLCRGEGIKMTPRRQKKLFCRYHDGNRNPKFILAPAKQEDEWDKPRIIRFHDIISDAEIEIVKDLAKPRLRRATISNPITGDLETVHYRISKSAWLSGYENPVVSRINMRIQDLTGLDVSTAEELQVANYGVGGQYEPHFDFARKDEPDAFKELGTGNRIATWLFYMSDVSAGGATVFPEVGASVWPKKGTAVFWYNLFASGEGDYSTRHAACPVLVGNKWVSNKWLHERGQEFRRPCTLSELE
Assay: Inhibition of human recombinant CP4H1 expressed in Escherichia coli Origami B(DE3) pre-incubated for 2 mins followed by alpha-ketoglutarate addition using dansylGlyProProGlyOEt substrate in Tris-HCl buffer at pH 7.8 at 30 degC by HPLC based Cheng-Prussoff equation method
Reported pKi is given for each of the following compounds.
Quick note: pKi values are minus log10 of concentrations in mol/L.

O=C(O)c1ccc(-c2cc(C(=O)O)ccn2)nc1 ... 6.70

For "O=C(O)c1ccc(C(=O)O)nc1" , what is its reported pKi?
5.59

For "O=C(O)c1ccc(-c2ccc(C(=O)O)cn2)nc1" , what is its reported pKi?
6.85

----------
Molecular target: Prolyl 4-hydroxylase subunit alpha-1 (Homo sapiens, UniProt P13674)
Assay: Inhibition of human recombinant CP4H1 expressed in Escherichia coli Origami B(DE3) at 10 uM pre-incubated for 2 mins followed by alpha-ketoglutarate addition using dansylGlyProProGlyOEt substrate in Tris-HCl buffer at pH 7.8 at 30 degC by HPLC method
The source made the active and inactive calls. No cut-off for these calls is given here.
attribute measured: inhibition

O=C(O)c1ccc(C(=O)O)nc1 [PYRIDINE-2,5-DICARBOXYLIC ACID] ... Active
O=C(O)c1ccnc(-c2cc(C(=O)O)ccn2)c1 ... Active
O=C(O)c1ccc(-c2cc(C(=O)O)ccn2)nc1 ... > 90%

----------
Experiment: Binding affinity to Fe(2) assessed as half maximal concentration required for binding 20 uM Fe(2) in pH 7.0 sodium phosphate buffer
Settings: read-out: EC50
attribute measured: pEC50
Quick note: pEC50 values are minus log10 of concentrations in mol/L.

Consider the worked cases shown below.
O=C(O)c1ccc(-c2cccc(C(=O)O)n2)nc1 ... 4.57
c1ccc(-c2ccccn2)nc1 ... 4.37
O=C(O)c1ccnc(-c2cc(C(=O)O)ccn2)c1 ... 4.42
O=C(O)c1ccc(-c2cc(C(=O)O)ccn2)nc1 ... 4.11
O=C(O)c1ccc(-c2ccc(C(=O)O)cn2)nc1 ... 3.95

For "O=C(O)c1ccnc(-c2cccc(C(=O)O)n2)c1" , what is its reported pEC50?
4.59

Numbers sourced from ChEMBL document CHEMBL3585337.
